Measured IC50 of individual entries
test_system: Nicotinamide N-methyltransferase (Homo sapiens, UniProt P40261)
Sequence (P40261 whole entry, the tested form may be a part): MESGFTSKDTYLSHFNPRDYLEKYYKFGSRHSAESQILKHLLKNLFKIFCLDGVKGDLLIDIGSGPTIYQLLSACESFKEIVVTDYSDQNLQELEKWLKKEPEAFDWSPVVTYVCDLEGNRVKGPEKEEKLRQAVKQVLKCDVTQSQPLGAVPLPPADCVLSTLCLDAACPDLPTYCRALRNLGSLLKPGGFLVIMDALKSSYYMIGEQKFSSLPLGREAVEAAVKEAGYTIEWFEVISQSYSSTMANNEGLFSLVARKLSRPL
protocol_details: Inhibition of N-terminal 6His-tagged full length human recombinant NNMT (1 to 264 residues) expressed in Escherichia coli BL21 (DE3) cells using S-adenosyl-L-methionine and NAM as substrate incubated for 22 to 24 hrs by RapidFire Mass Spectrometry
Positions of bridges follow the written chain, without caps; N, C: chain ends. Non-standard residues stand in square brackets, D forms with d. Residues, ends and D or L forms follow the SMILES beside them. Phe(4-CONH2) = NC(=O)c1ccc(C[C@H](N)C(=O)O)cc1; NHexGly = CCCCCCNCC(=O)O; Sar = CNCC(=O)O
quantity_kind: IC50

{"compound": "CCCCCCN1CC(=O)N[C@@H](C)C(=O)N2CCC[C@H]2C(=O)N[C@H](C(N)=O)CSCC(=O)N[C@@H](Cc2ccccc2)C(=O)N[C@@H](Cc2ccc(C(N)=O)cc2)C(=O)N[C@@H](CCCNC(=N)N)C(=O)NCC1=O ({CH2CO}-F[Phe(4-CONH2)]RG[NHexGly]APC-NH2; thioether N-8)", "observed": "> 100 µM"}
{"compound": "C[C@@H]1NC(=O)CNC(=O)[C@H](CCCNC(=N)N)NC(=O)[C@H](Cc2ccc(C(N)=O)cc2)NC(=O)[C@H](Cc2ccccc2)NC(=O)CSC[C@@H](C(N)=O)NC(=O)[C@@H]2CCCN2C(=O)[C@H](Cc2c[nH]c3ccccc23)NC1=O ({CH2CO}-F[Phe(4-CONH2)]RGAWPC-NH2; thioether N-8)", "observed": "> 100 µM"}
{"compound": "CCCCCCN1CC(=O)N[C@@H](Cc2c[nH]c3ccccc23)C(=O)N2CCC[C@H]2C(=O)N[C@H](C(N)=O)CSCC(=O)N[C@@H](Cc2ccccc2)C(=O)N[C@@H](Cc2ccc(C(N)=O)cc2)C(=O)N[C@@H](C)C(=O)NCC1=O ({CH2CO}-F[Phe(4-CONH2)]AG[NHexGly]WPC-NH2; thioether N-8)", "observed": "> 100 µM"}
{"compound": "CN1CC(=O)N[C@@H](Cc2c[nH]c3ccccc23)C(=O)N2CCC[C@H]2C(=O)N[C@H](C(N)=O)CSCC(=O)N[C@@H](Cc2ccccc2)C(=O)N[C@@H](Cc2ccc(C(N)=O)cc2)C(=O)N[C@@H](CCCNC(=N)N)C(=O)NCC1=O ({CH2CO}-F[Phe(4-CONH2)]RG[Sar]WPC-NH2; thioether N-8)", "observed": "> 30 µM"}
